// provenance: PubChem BioAssay (Tox21)

# test_details: A CellTox Green Cytotoxicity Assay to monitor cytotoxicity in HepG2 cells - 8 hour (AID 1224890); also: % is scaled to controls: 0 for no effect and ±100 for the full control effect; nearly all actives have a fitted effect of over 45% in size
# test_settings: CellTox Green fluorescence; series mostly up to 76.8 µM
Records with an inconclusive call do not appear. Calls of active or inactive are those of the source. Calls follow the shape of the dose curve; as a rule, active = well fitted activation curve with a large enough effect in the repeat runs; inconclusive = weak or mixed curves; inactive = flat fitted curve, though single readings scatter.
// classify into True for active, False for inactive

Reference set (2 entries):
> print(dat)
                                   molecule  group
1  CCOc1nc(F)cc2nc(S(=O)(=O)Nc3c(Cl)cccc3C(=O)OC)nn12  False
2                  CCOC=C(C(=O)OCC)C(=O)OCC  False

-- ask For CCC1(C)C(=O)N(Cl)C(=O)N1Cl (stereo unspecified) , which call appears in the assay record?
-- reply False

-- ask For O=C(Nc1ccc([N+](=O)[O-])cc1)Nc1ccc([N+](=O)[O-])cc1 (tested in a mixture with another compound) , which call appears in the assay record?
-- reply False

-- ask For Oc1cccc2c(O)cccc12 , which call appears in the assay record?
-- reply False

-- ask For Nc1ccc2c(S(=O)(=O)O)cccc2c1S(=O)(=O)O , which call appears in the assay record?
-- reply False

-- ask For CC(=O)Nc1ccc(N=Nc2cc(C)ccc2O)cc1 , which call appears in the assay record?
-- reply False

-- ask For COc1cc(OC)nc(NC(=O)NS(=O)(=O)Nc2ccccc2C(=O)N(C)C)n1 , which call appears in the assay record?
-- reply False

-- ask For NC(=O)c1ccccc1Cl , which call appears in the assay record?
-- reply False

-- ask For Cn1ccnc1 , which call appears in the assay record?
-- reply False

-- ask For [Cl][Sc]([Cl])[Cl] , which call appears in the assay record?
-- reply False

-- ask For SC1CCCCC1 , which call appears in the assay record?
-- reply False

====

# study_system: Androgen receptor (Homo sapiens) (UniProt P10275)
# Sequence (P10275 whole entry, looked up): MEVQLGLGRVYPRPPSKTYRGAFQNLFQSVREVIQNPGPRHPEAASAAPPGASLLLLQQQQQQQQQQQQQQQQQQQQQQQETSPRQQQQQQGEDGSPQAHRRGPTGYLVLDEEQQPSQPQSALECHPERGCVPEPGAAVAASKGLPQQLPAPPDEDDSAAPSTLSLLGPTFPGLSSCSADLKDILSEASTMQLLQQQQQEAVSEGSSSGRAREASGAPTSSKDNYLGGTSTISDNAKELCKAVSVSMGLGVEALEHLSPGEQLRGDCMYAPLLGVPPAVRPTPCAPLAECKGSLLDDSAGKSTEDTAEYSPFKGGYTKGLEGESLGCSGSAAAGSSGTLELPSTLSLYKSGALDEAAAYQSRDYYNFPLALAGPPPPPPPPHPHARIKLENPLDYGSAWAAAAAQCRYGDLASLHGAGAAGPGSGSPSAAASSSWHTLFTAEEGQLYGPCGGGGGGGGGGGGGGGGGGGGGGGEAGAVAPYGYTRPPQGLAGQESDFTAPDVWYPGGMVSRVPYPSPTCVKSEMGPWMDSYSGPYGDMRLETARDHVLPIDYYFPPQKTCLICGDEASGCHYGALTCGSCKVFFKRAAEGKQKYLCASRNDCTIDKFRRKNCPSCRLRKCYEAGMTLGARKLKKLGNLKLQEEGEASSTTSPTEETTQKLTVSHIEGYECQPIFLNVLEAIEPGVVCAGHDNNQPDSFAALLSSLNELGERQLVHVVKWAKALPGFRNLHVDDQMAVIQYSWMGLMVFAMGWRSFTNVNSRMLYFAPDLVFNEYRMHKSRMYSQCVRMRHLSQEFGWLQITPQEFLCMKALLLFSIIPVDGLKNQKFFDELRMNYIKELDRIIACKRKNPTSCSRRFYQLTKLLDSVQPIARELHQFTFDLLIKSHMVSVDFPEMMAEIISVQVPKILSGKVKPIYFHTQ
# test_details: qHTS assay to identify small molecule agonists of the androgen receptor (AR) signaling pathway in the presence of an antagonist (AID 1259381); also: % is scaled to controls: 0 for no effect and ±100 for the full control effect; nearly all actives have a fitted effect of over 15% in size
# test_settings: MDA-kb2 MMTV-luciferase, AR agonist + nilutamide, 16 h; series mostly up to 92.4 µM
Active and inactive are the calls of the source. Calls follow the shape of the full dose curve.
recorded_metric: activation

// solved cases for activation follow
compound	result
CCC(=O)OC/C=C(\C)CCC=C(C)C	inactive
CCC1(C)C(=O)N(Cl)C(=O)N1Cl (stereo not drawn)	inactive
COc1cc(C(C)C)ccc1C	0.232% [at 19 µM] (inactive)
Cn1c(=O)[nH]c2ncn(C)c2c1=O	inactive

-- ask // fetch activation given entry CCc1c(C)cc(N)c(CC)c1N
-- reply inactive

-- ask // fetch activation given entry O=C1C=CC(=O)N1c1cccc(N2C(=O)C=CC2=O)c1
-- reply inactive

-- ask // fetch activation given entry NCc1cccc(C2CCN(C(=O)c3ccc(C#Cc4ccccc4F)o3)CC2)c1
-- reply inactive

-- ask // fetch activation given entry O=C1CCC(=O)N1
-- reply inactive

-- ask // fetch activation given entry COc1cc(/C=C/C(=O)CC(=O)/C=C/c2ccc(O)c(OC)c2)ccc1O
-- reply inactive

-- ask // fetch activation given entry C[C@H]1O[C@@H](O[C@H]2CC[C@@]3(C)[C@H](CC[C@@H]4[C@@H]3C[C@@H](O)[C@]3(C)[C@@H](C5=CC(=O)OC5)CC[C@]43O)C2)C[C@H](O)[C@@H]1O[C@H]1C[C@H](O)[C@H](O[C@H]2C[C@H](O)[C@H](O[C@@H]3O[C@H](CO)[C@@H](O)[C@H](O)[C@H]3O)[C@@H](C)O2)[C@@H](C)O1
-- reply inactive

====

# test_details: qHTS assay to identify small molecule antagonists of the thyroid receptor (TR) signaling pathway (AID 743065); also: nearly all actives have a fitted effect of over 55% in size
# test_settings: GH3.TRE-Luc, T3-stimulated luciferase inhibition, 23.5 h; series mostly up to 70.3 µM
Inconclusive results are not listed. The source made the active and inactive calls. Calls come from the whole dose curve; as a rule, active = well fitted inhibition curve with a large enough effect in the repeat runs; inconclusive = weak or mixed curves; inactive = no such curve, though single readings can be large or run the other way.
// classify into active, inactive

Reference set (4 entries):
> print(dat)
                                   compound     group
1                                NCCCC(=O)O  inactive
2       O=C(O)COc1ccccc1/C=N/NC(=O)c1ccncc1  inactive
3  CN(C[C@@H](CC[N+]12CCC(C3CCCCC3)(CC1)CC2)c1ccc(Cl)c(Cl)c1)C(=O)c1cc(C(F)(F)F)cc(C(F)(F)F)c1    active
4  CCN(CC)CCOC[C@H]1O[C@@H](O)[C@H](OCCN(CC)CC)[C@@H](O)[C@@H]1O  inactive

-- ask For Cc1cccc(C)c1NC(=O)C1CCCCN1C (stereo not given) , which call appears in the assay record?
-- reply inactive

-- ask For CO/N=C(\C(=O)N[C@@H]1C(=O)N2C(C(=O)O)=C(CSc3nc(C)c(CC(=O)O)s3)CS[C@H]12)c1csc(N)n1 , which call appears in the assay record?
-- reply inactive

-- ask For N[C@@H](Cc1ccc(O)c(O)c1)C(=O)O , which call appears in the assay record?
-- reply inactive

-- ask For O=C(Cn1cnnn1)N[C@@H]1C(=O)N2C(C(=O)O)=C(CSc3nncs3)CS[C@H]12 , which call appears in the assay record?
-- reply inactive

-- ask For CSCCC(N)C(=O)O (stereo not given) , which call appears in the assay record?
-- reply inactive

-- ask For NC[C@H]1O[C@H](O[C@H]2[C@H](O)[C@@H](O[C@H]3O[C@H](CO)[C@@H](O)[C@H](N)[C@H]3O)[C@H](N)C[C@@H]2N)[C@H](N)C[C@@H]1O , which call appears in the assay record?
-- reply inactive

====

# study_system: Nuclear receptor subfamily 1 group I member 2 (Homo sapiens)
# test_details: CYP3A4 induction through human pregnane X receptor (PXR) by small molecules, qHTS assay (AID 1346984); also: nearly all actives have a fitted effect of over 40% in size; as to activation: % is scaled to controls: 0 for no effect and ±100 for the full control effect
# test_settings: DPX-2 HepG2 PXR, CYP3A4-luciferin luminescence, 24 h; series mostly up to 46.1 µM
Records with an inconclusive call do not appear. Active and inactive are the calls of the source. The call rests on the fitted dose curve; in most records, active means well fitted activation curve with a large enough effect in the repeat runs; inconclusive means weak or mixed curves; inactive means no such curve, though single readings can be large or run the other way.
// classify into active, inactive

compound	group
CN(C)CCC(O)(c1ccccc1)c1ccccc1Cl (centres undefined)	active
CN[C@H](CC(C)C)C(=O)N[C@H]1C(=O)N[C@@H](CC(N)=O)C(=O)N[C@H]2C(=O)N[C@H]3C(=O)N[C@H](C(=O)N[C@@H](C(=O)O)c4cc(O)cc(O)c4-c4cc3ccc4O)[C@H](O)c3ccc(c(Cl)c3)Oc3cc2cc(c3O[C@@H]2O[C@H](CO)[C@@H](O)[C@H](O)[C@H]2O[C@H]2C[C@](C)(N)C(O)[C@H](C)O2)Oc2ccc(cc2Cl)[C@H]1O (some centres undefined)	inactive
NC(=O)[C@@H]1CCCN1C(=O)[C@H](Cc1cnc[nH]1)NC(=O)[C@@H]1CCC(=O)N1	inactive

-- ask For CNCCC=C1c2ccccc2CCc2ccccc21 , which call appears in the assay record?
-- reply active

-- ask For Cc1cccc(C)c1NC(=O)C1CCCCN1C (centres undefined) , which call appears in the assay record?
-- reply inactive

-- ask For O=C(O)/C=C/C(O)c1ccc(Cl)cc1 (centres undefined) , which call appears in the assay record?
-- reply inactive

-- ask For CCC1OC(=O)C[C@@H](O)[C@H](C)[C@@H](O[C@@H]2O[C@H](C)C[C@H](N(C)C)[C@H]2O)[C@@H](CC=O)C[C@@H](C)C(=O)/C=C/[C@]2(C)OC2C1C (some centres undefined) , which call appears in the assay record?
-- reply inactive

-- ask For C[Se]CC[C@H](N)C(=O)O , which call appears in the assay record?
-- reply inactive

-- ask For COc1cc(NS(C)(=O)=O)ccc1Nc1c2ccccc2nc2ccccc12 , which call appears in the assay record?
-- reply inactive

====

# test_details: A CellTox Green Cytotoxicity Assay to monitor cytotoxicity in HepG2 cells - 40 hour (AID 1224879); also: nearly all actives have a fitted effect of over 40% in size
# test_settings: CellTox Green fluorescence; series mostly up to 76.8 µM
Records with an inconclusive call do not appear. Active and inactive are the calls of the source. The call rests on the fitted dose curve; in most records, active means well fitted activation curve with a large enough effect in the repeat runs; inconclusive means weak or mixed curves; inactive means flat fitted curve, though single readings scatter.
// classify into true = active, false = inactive

> print(dat)
                                    compound  group
 1                  O=[N+]([O-])c1ccc(CO)cc1  false
 2             COC(=O)c1ccc([N+](=O)[O-])cc1  false
 3             CCC(O)CO (stereo unspecified)  false
 4            O=C1c2ccccc2C(=O)c2c(Cl)cccc21  false
 5                 Cc1ccc(S(=O)(=O)C(I)I)cc1   true
 6                        [Cl][Dy]([Cl])[Cl]  false
 7  O=C(Nc1ccc([N+](=O)[O-])cc1)Nc1ccc([N+](=O)[O-])cc1 (tested in a mixture with another compound)   true
 8   C=C(C)C1CCC(C)CC1O (stereo unspecified)  false
 9  O=C1OC(=O)c2cc(-c3ccc4c(c3)C(=O)OC4=O)ccc21  false
10                 CC1=CC[C@@H](C(C)(C)O)CC1  false

-- ask For COc1cc([C@@H]2c3cc4c(cc3[C@@H](O[C@@H]3O[C@@H]5CO[C@@H](C)O[C@H]5[C@H](O)[C@H]3O)[C@H]3COC(=O)[C@H]23)OCO4)cc(OC)c1O , which call appears in the assay record?
-- reply true
